Tested on: ACHN
test_details: NCI tumour cell line growth inhibition, 48 h
Activity calls are given as the source filed them. No stated cut-off is given here; in the data, active = GI50 up to about 1.1 µM and inactive = higher.
property_measured: GI50

In [3]: df
Out[3]:
                                    molecule  property_measured  observed_measurement
 0  NC(=O)C1C(=O)Oc2cccnc21 (stereo not drawn)               GI50   > 100 µM (inactive)
 1  Cc1ccc(C[P+]2(c3ccccc3)CCCCC2)cc1.[O-][Cl+3]([O-])([O-])[O-]               GI50    81.7 µM (inactive)
 2     COc1ccc(/C(Cl)=C/c2ccc(Cl)c(Cl)c2)cc1               GI50    24.8 µM (inactive)
 3               COc1nc(C#CC2CCCCC2)nc(OC)n1               GI50    4.26 µM (inactive)
 4  OCC1c2ccccc2-n2nc(-c3ccccc3)c(O)c21 (stereo not drawn)               GI50    16.8 µM (inactive)
 5  Cc1cn(C2CC(O)C(Cn3cc(Cn4nc(Br)c(=O)[nH]c4=O)nn3)O2)c(=O)[nH]c1=O (stereo not drawn)               GI50   > 100 µM (inactive)
 6        CCCCOCOc1ccccc1P1(=O)COc2ccccc2OC1               GI50    86.7 µM (inactive)
 7  Nc1nc(SCc2ccccc2Cl)c2ncn(C3OC(CO)C(O)C3O)c2n1 (stereo not drawn)               GI50   > 100 µM (inactive)
 8  COC(=O)C(Cc1c[nH]c2ccccc12)NC1=Nc2ccncc2S(=O)(=O)N1c1cccc(OC(C)C)c1 (stereo not drawn)               GI50    41.1 µM (inactive)
 9  O=C1NC2OC(CO)C(O)C(O)C2O1 (stereo not drawn)               GI50   > 100 µM (inactive)
10  O=C1C2SC34c5c2c2ccccc2n5CCC3CCCN14 (stereo not drawn)               GI50   > 100 µM (inactive)
11                  C1CN(c2nnc(N3CCC3)nn2)C1               GI50  > 69.8 µM (inactive)
12  CN1C(=O)N/C(=C\c2ccc(S(=O)(=O)NN)cc2)C1=O               GI50   > 100 µM (inactive)

###

System: SNB-75
test_details: NCI tumour cell line growth inhibition, 48 h
The source made the active and inactive calls. Rule as the data show it: active = GI50 up to about 1.1 µM and inactive = higher.
property_measured: GI50

>>> print(df.to_string())
                         chemical_structure  measured_on  observed_measurement
0            CCSCN(C)c1nc(N(C)C)nc(N(C)C)n1       SNB-75      59 µM (inactive)
1  CNc1cc([N+](=O)[O-])ccc1C(=O)N1CCC[C@H]1CO       SNB-75   > 100 µM (inactive)
2  CN1C(=O)N/C(=C\c2ccc(S(=O)(=O)NN)cc2)C1=O       SNB-75   > 100 µM (inactive)

###

Test system: OVCAR-3
test_details: NCI tumour cell line growth inhibition, 48 h
Activity calls are given as the source filed them. Rule as the data show it: active = GI50 up to about 1.1 µM and inactive = higher.
Outcome codes: active, inactive

molecule	class
Cc1cc(O)c2c3c(ccc2c1)C(=O)c1c(O)cccc1C3=O [TETRANGULOL]	active
COc1cc2c(oc(=O)c3cc4cc([Si](C)(C)C)oc4c(OC)c32)c2cccc(O)c12	inactive
O=C(O)c1ccc(CI)cc1	inactive
COc1cc2c(c3c1C=CCO3)C(=O)c1ccccc1C2=O	inactive
CCOP(=O)(OCC)C(=C1C=C(C(C)(C)C)C(=O)C(C(C)(C)C)=C1)P(=O)(OCC)OCC	inactive
Cn1c(=O)c2c(nc3n(Cc4ccccc4)c(=O)c(NCCCBr)cn23)n(C)c1=O	inactive
c1cc(C[S+]2CCCC2)oc1C[S+]1CCCC1	inactive
CCC(=O)n1c(=O)n(-c2ccc([N+](=O)[O-])cc2)c(=O)n1C(=O)CC	inactive
FC1OC2OC1C(OCc1ccccc1)C(OCc1ccccc1)C2OCc1ccccc1 (centres undefined)	inactive
CN(C)c1cccc(-c2cc(=S)c3cc4c(cc3[nH]2)OCO4)c1	inactive
C=CCC1CC(n2cc(C)c(=O)[nH]c2=O)OC1CO[Si](C)(C)C(C)(C)C (centres undefined)	inactive
c1ccc2cc(-c3cc4ccccc4s3)ccc2c1	inactive
CC(=O)NC1C(OCc2ccccc2)OC(CO)C(O)C1OCC(=O)N1CCCC1C(=O)NC(CCC(=O)NCCCCCNc1c2ccccc2nc2cccc([N+](=O)[O-])c12)C(N)=O (centres undefined)	active
C=CCn1c(=O)c(C(=O)NC(=O)OCC)cn(C2CCCCC2)c1=O	inactive

Hey, just so you know, these numbers are from ChEMBL document CHEMBL1201862.
